run-description: Pharmacokinetics of noribogaine in healthy volunteers, ascending single oral dose (plasma noribogaine and noribogaine glucuronide)
test-conditions: male, human, plasma, po, 10 mg
measurement-name: Tmax

# query: Tmax of entry CCC1CC2CC3c4[nH]c5ccc(O)cc5c4CCN(C2)C13 (stereo not shown)
2.9 h

---

run-description: Pharmacokinetics of noribogaine in healthy volunteers, ascending single oral dose (plasma noribogaine and noribogaine glucuronide)
test-conditions: male, human, plasma, po, 3 mg
measurement-name: Tmax

# query: Tmax of entry CCC1CC2CC3c4[nH]c5ccc(O)cc5c4CCN(C2)C13 (stereo not shown) [Noribogaine]
1.9 h
